- system-tested: T1, Csa3a (SsCsa3a) (Saccharolobus solfataricus P2, UniProt Q97Y88 1-237)
- T1 sequence: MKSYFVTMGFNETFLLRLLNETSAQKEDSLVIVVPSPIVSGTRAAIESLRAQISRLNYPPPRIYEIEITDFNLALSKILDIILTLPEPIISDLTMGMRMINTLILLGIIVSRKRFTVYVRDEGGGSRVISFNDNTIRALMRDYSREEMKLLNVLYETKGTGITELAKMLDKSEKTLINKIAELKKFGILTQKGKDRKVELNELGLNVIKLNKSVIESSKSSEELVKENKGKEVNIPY
- method: ITC; 25 C; 250-500 uM cA4; n about 0.6 per dimer; endothermic; EMSA: TAE, 37 C 30 min, 18 nM DNA (5.2 ng/uL), +/-10 uM cA4, 2% agarose; FP: 20 mM SPG, 50 mM NaCl, pH 6.5, 50 C (also 21 C), 30 nM DNA; ITC: 10 mM Tris, 50 mM
- test-context: protein: recombinant; tags: 6xHis (pEXP14-6xHis-Sso1445); chain copies: 2; cyclic, single copy per Csa3a dimer
experimental-endpoint: Kd (nM)
Return type: number; implicit unit nM.

Entry AAAA (ssRNA, cyclic, 3'-5' linked?) [cA4 (cyclic tetra-adenylate)] needs its Kd filled in; supply it.
1220
